- EXPERIMENTAL SYSTEM: Cytochrome P450 1A2 (Homo sapiens, UniProt P05177)
- Sequence (P05177 whole entry): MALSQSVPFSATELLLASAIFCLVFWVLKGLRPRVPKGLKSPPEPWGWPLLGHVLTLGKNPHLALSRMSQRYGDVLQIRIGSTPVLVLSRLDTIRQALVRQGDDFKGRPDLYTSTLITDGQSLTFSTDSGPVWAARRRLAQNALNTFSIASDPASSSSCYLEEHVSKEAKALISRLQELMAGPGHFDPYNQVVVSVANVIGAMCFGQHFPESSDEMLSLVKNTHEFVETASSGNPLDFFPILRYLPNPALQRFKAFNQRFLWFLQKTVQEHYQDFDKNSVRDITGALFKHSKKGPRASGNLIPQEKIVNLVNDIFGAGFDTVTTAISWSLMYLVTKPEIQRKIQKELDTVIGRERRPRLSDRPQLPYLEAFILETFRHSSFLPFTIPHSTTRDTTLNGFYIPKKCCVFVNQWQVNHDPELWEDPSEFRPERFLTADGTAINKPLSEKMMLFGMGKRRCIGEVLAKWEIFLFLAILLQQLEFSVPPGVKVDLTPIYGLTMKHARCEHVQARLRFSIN
- TEST: Inhibition of CYP1A2
- Assay type: ADME
MEASURED ENDPOINT: IC50 (µM)
State the answer as a number, implicitly in µM.

Ask | Tell me the measured IC50 of CC[C@@H](Oc1cccc(Cn2c(C)c(C(=O)c3ccc(Cl)cc3)c3ccc(OC(F)(F)F)cc32)c1)C(=O)O , please.
Reply | 40

###

- EXPERIMENTAL SYSTEM: Peroxisome proliferator-activated receptor alpha (Mus musculus)
- Sequence (P23204 whole entry): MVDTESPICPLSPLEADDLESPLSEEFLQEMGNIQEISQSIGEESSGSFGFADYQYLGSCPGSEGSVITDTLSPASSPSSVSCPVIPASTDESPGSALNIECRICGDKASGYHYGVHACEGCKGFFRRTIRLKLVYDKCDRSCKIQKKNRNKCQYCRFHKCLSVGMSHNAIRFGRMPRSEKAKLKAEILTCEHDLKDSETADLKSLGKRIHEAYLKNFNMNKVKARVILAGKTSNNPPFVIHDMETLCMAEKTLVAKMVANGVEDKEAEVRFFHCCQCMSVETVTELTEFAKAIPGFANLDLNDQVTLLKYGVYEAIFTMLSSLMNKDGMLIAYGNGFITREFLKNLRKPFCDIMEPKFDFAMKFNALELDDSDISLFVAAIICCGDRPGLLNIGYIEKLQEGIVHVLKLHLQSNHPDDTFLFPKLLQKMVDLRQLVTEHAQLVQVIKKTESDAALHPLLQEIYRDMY
- TEST: Agonist activity at mouse PPARalpha receptor expressed in african green monkey COS1 cells co-transfected with fused yeast Gal4-DBD by transactivation assay
- Format: functional, cell-based, COS-1
- TEST CONDITIONS: cos-1
pEC50: −log10 of the molar value.
MEASURED ENDPOINT: pEC50

Ask | Tell me the measured pEC50 of CC[C@@](C)(Oc1cccc(Cn2c(C)c(C(=O)c3ccc(Cl)cc3)c3ccc(OC(F)(F)F)cc32)c1)C(=O)O (stereo in doubt; 12i) , please.
Reply | < 6.00

###

- EXPERIMENTAL SYSTEM: Cytochrome P450 2C19 (Homo sapiens)
- Sequence (P33261 whole entry): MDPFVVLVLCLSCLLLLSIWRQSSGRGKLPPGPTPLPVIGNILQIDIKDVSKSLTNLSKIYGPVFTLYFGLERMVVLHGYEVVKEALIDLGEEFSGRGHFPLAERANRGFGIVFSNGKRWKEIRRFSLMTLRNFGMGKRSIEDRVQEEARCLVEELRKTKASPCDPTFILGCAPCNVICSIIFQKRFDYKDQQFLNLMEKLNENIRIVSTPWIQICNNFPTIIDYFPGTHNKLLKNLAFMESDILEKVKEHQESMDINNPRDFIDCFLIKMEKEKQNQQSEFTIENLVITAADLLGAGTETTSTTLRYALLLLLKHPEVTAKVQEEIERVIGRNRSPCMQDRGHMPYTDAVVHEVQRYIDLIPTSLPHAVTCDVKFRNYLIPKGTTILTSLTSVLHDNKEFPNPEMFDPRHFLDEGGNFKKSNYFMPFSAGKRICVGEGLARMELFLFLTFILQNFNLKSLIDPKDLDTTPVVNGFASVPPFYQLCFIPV
MEASURED ENDPOINT: pIC50
# pIC50 is unitless: minus log10 of the molar concentration; print number only

Ask | Tell me the measured pIC50 of CC[C@@H](Oc1cccc(Cn2c(C)c(C(=O)c3ccc(Cl)cc3)c3ccc(OC(F)(F)F)cc32)c1)C(=O)O , please.
Reply | 4.04

###

- EXPERIMENTAL SYSTEM: Peroxisome proliferator-activated receptor alpha (Homo sapiens)
- Sequence (Q07869 whole entry): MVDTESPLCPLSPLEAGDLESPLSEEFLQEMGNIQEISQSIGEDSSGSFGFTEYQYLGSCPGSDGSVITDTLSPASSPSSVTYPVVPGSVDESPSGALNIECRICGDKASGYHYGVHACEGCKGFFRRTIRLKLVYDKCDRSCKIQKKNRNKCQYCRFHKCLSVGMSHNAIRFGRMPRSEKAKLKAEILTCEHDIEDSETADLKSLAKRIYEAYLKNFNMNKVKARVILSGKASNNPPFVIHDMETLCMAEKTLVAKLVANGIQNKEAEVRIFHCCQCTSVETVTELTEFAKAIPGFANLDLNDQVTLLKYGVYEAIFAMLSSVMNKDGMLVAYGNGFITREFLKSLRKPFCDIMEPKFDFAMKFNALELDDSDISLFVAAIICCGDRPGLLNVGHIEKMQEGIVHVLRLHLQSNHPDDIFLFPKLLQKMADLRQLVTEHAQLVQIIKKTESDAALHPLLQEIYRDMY
- TEST: Inhibition of human PPARalpha receptor by scintillation proximity assay
Below, each entry is listed alongside its reported pIC50.
# pIC50 is unitless: minus log10 of the molar concentration; print number only

The following compounds have reported results that may help.
Cc1c(C(=O)c2ccc(Cl)cc2)c2ccc(OC(F)(F)F)cc2n1Cc1cccc(O[C@H](C(=O)O)C(C)C)c1    5.53
CC[C@@H](Oc1cccc(Cn2c(C)c(C(=O)c3ccc(Cl)cc3)c3ccc(OC(F)(F)F)cc32)c1)C(=O)O    5.58

Ask | Tell me the measured pIC50 of CC[C@@](C)(Oc1cccc(Cn2c(C)c(C(=O)c3ccc(Cl)cc3)c3ccc(OC(F)(F)F)cc32)c1)C(=O)O (stereo in doubt; 12j) , please.
Reply | 6.12

Ask | // query: Cc1c(C(=O)c2ccc(Cl)cc2)c2ccc(OC(F)(F)F)cc2n1Cc1cccc(OC2(C(=O)O)CCC2)c1
Reply | 5.97

Ask | // query: CC[C@@](C)(Oc1cccc(Cn2c(C)c(C(=O)c3ccc(Cl)cc3)c3ccc(OC(F)(F)F)cc32)c1)C(=O)O (stereo in doubt; 12i)
Reply | 7.06

Ask | // query: Cc1c(C(=O)c2ccc(Cl)cc2)c2ccc(OC(F)(F)F)cc2n1Cc1cccc(O[C@@H](C(=O)O)C(C)C)c1
Reply | 6.31

###

- TEST: Cmax in Beagle dog at 3 mg/kg, po once daily for 14 days
- Type: ADME, organism-based, Canis lupus familiaris
- Set-up: dose 3 mg/kg, route oral
- TEST CONDITIONS: in vivo
MEASURED ENDPOINT: Cmax (µM)
State the answer as a number, implicitly in µM.

Ask | Tell me the measured Cmax of CC[C@@H](Oc1cccc(Cn2c(C)c(C(=O)c3ccc(Cl)cc3)c3ccc(OC(F)(F)F)cc32)c1)C(=O)O , please.
Reply | 18.6

###

- EXPERIMENTAL SYSTEM: Peroxisome proliferator-activated receptor gamma (Homo sapiens, UniProt P37231)
- Sequence (P37231 whole entry): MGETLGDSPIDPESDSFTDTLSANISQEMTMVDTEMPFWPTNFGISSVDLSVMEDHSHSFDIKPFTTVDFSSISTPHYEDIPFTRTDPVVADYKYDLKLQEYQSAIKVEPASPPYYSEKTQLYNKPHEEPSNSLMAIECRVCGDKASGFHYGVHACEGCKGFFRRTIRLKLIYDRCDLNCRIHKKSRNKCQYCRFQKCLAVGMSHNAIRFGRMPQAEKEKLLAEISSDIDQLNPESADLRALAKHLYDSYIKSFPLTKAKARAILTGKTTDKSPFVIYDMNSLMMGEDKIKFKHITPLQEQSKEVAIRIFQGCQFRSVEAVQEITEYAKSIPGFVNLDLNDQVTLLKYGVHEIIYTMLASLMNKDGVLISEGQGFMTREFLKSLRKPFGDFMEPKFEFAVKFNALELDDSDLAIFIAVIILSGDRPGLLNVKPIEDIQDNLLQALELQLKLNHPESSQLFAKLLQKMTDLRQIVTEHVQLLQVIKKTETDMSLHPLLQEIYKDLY
- TEST CONDITIONS: cos-1
- Description: Agonist activity at human PPARgamma receptor expressed in african green monkey COS1 cells co-transfected with fused yeast Gal4-DBD by transactivation assay
MEASURED ENDPOINT: pEC50
# pEC50 is unitless: minus log10 of the molar concentration; print number only

Ask | Tell me the measured pEC50 of CC[C@@](C)(Oc1cccc(Cn2c(C)c(C(=O)c3ccc(Cl)cc3)c3ccc(OC(F)(F)F)cc32)c1)C(=O)O (stereo in doubt; 12i) , please.
Reply | 8.70

###

- TEST: AUC in Syrian golden hamster at 3 mg/kg, po once daily for 9 days
- Type: ADME, organism-based, Mesocricetus auratus
- Design: dose 3 mg/kg, route oral
- TEST CONDITIONS: plasma
MEASURED ENDPOINT: AUC at 216 h (µM·h)
State the answer as a number, implicitly in µM·h.

Ask | Tell me the measured AUC at 216 h of CC[C@@H](Oc1cccc(Cn2c(C)c(C(=O)c3ccc(Cl)cc3)c3ccc(OC(F)(F)F)cc32)c1)C(=O)O , please.
Reply | 2.11

###

- TEST: AUC in Syrian golden hamster at 0.3 mg/kg, po once daily for 9 days
- Type: ADME, organism-based, Mesocricetus auratus
- Design: dose 0.3 mg/kg, route oral
- TEST CONDITIONS: plasma
MEASURED ENDPOINT: AUC at 216 h (µM·h)
State the answer as a number, implicitly in µM·h.

Ask | Tell me the measured AUC at 216 h of CC[C@@H](Oc1cccc(Cn2c(C)c(C(=O)c3ccc(Cl)cc3)c3ccc(OC(F)(F)F)cc32)c1)C(=O)O , please.
Reply | 0.13

###

- TEST: Cmax in Syrian golden hamster at 1 mg/kg, po once daily for 9 days
- Assay type: ADME, organism-based, Mesocricetus auratus
- Parameters: dose 1 mg/kg, route oral
- TEST CONDITIONS: in vivo
MEASURED ENDPOINT: Cmax

Ask | Tell me the measured Cmax of CC[C@@H](Oc1cccc(Cn2c(C)c(C(=O)c3ccc(Cl)cc3)c3ccc(OC(F)(F)F)cc32)c1)C(=O)O , please.
Reply | 70 nM

###

- EXPERIMENTAL SYSTEM: Peroxisome proliferator-activated receptor gamma (Homo sapiens, UniProt P37231)
Threshold-based label: IC50 under 10 nM gives y, IC50 not under 10 nM gives n.

CCC[C@H](Oc1cccc(Cn2c(C)c(C(=O)c3ccc(Cl)cc3)c3ccc(OC(F)(F)F)cc32)c1)C(=O)O    y

Now consider the entry below.
Ask | Item CC[C@@H](Oc1cccc(Cn2c(C)c(C(=O)c3ccc(Cl)cc3)c3ccc(OC(F)(F)F)cc32)c1)C(=O)O : IC50 beneath 10 nM, strictly?
Reply | y

###

- TEST: Cmax in Syrian golden hamster at 0.3 mg/kg, po once daily for 9 days
- Format: ADME, organism-based, Mesocricetus auratus
- Set-up: dose 0.3 mg/kg, route oral
- TEST CONDITIONS: in vivo
MEASURED ENDPOINT: Cmax (nM)
State the answer as a number, implicitly in nM.

Ask | Tell me the measured Cmax of CC[C@@H](Oc1cccc(Cn2c(C)c(C(=O)c3ccc(Cl)cc3)c3ccc(OC(F)(F)F)cc32)c1)C(=O)O , please.
Reply | 20

###

- TEST: Cmax in Beagle dog at 1 mg/kg, po once daily for 14 days
- Assay type: ADME, organism-based, Canis lupus familiaris
- Parameters: dose 1 mg/kg, route oral
- TEST CONDITIONS: in vivo
MEASURED ENDPOINT: Cmax (nM)
State the answer as a number, implicitly in nM.

Ask | Tell me the measured Cmax of CC[C@@H](Oc1cccc(Cn2c(C)c(C(=O)c3ccc(Cl)cc3)c3ccc(OC(F)(F)F)cc32)c1)C(=O)O , please.
Reply | 1030

###

- TEST: Cmax in Beagle dog at 50 mg/kg, po once daily for 14 days
- Format: ADME, organism-based, Canis lupus familiaris
- Parameters: dose 50 mg/kg, route oral
- TEST CONDITIONS: in vivo
MEASURED ENDPOINT: Cmax (µM)
State the answer as a number, implicitly in µM.

Ask | Tell me the measured Cmax of CC(C)OC(=O)C(C)(C)Oc1ccc(C(=O)c2ccc(Cl)cc2)cc1 [FENOFIBRATE] , please.
Reply | 15
